From: PubChem BioAssay AID602464

Test system: Gli-responsive luciferase reporter cells, SUFU pathway antagonism
method: Gli-SUFU pathway antagonists, dose response, cell-based, luciferase luminescence, uHTS hits (AID 602464)
Activity calls are given as the source filed them. Rule as the data show it: active = IC50 below about 20 µM; inactive = the rest.
Log the outcome using a class from y = active, n = inactive

Assay outcome for COC(=O)C1=C(c2cc3ccccc3o2)C[C@@H]2CC[C@H]1N2C(=O)N1CCC(C)CC1 : what was it? y

So what was the verdict on c1ccc(-c2c[n+]3c(n2-c2ccccc2)CCC3)cc1 in this test? n

Each molecule tested received a call. Report the one for Cc1sc2ncnc(NCC3COc4ccccc4O3)c2c1C (stereo unspecified) . y

Record lookup: outcome of this test for Cc1cc(C)nc(/N=C(\N)Nc2ccccc2-c2ccccc2)n1 ? y

Dear colleague, could you share the recorded outcome for O=C(Nc1ccncc1)c1ccc(-c2ccccc2)cc1 when you have a moment? y

Dear colleague, could you share the recorded outcome for COc1ccc(NS(=O)(=O)c2ccc(N3CCCCC3)c(N)c2)cc1 when you have a moment? y

What did this assay record as the result for CCCCOc1ncnc2c1[nH]c1ccc(F)cc12 ? y

Give the logged outcome of this assay for the following molecule: CCOc1ccc(OCc2ccc(C(=O)NN=Cc3ccc[nH]3)cc2)cc1 y
